Entries annotated with measured IC50
- test-system: human SSTR1 (Homo sapiens)
- Construct: expressed in transfected cells; host or cells: CHO-K1 cells and CCL39 cells
- Sequence (P30872 whole entry): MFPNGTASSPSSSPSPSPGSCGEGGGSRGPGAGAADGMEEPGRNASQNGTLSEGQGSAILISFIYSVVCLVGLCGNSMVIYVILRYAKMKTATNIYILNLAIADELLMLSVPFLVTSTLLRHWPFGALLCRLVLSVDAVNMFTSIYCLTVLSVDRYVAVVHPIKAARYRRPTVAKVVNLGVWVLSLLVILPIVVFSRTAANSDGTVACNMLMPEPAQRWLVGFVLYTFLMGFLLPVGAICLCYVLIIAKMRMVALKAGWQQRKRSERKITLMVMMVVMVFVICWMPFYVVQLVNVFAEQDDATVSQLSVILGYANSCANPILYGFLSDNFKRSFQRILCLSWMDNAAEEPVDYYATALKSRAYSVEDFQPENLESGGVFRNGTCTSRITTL
- test: Displacement of 125I-[Leu8,D-Trp22,Tyr25]-SRIF-28 from cloned SSTR1 (receptor autoradiography)
- Format: binding
- particulars: inhibition of radioligand binding of 125I-[Leu8,D-Trp22,Tyr24]SRIF-28, cloned receptor; table; read-out: IC50 (nM) mSSTR1
*1 amine or outer side, *2 acyl side, *3 side chain or, on linkers, in order; H or OH if unused. Where a SMILES comes first, the peptide text is derived from it. Bridges are numbered along the chain shown (N, C = ends). [ ]: non-standard residue; d: D form. NMePhe(4-CH2NHiPr) = CN[C@@H](Cc1ccc(CNC(C)C)cc1)C(=O)O; Phe(4-CH2NHiPr) = CC(C)NCc1ccc(C[C@H](N)C(=O)O)cc1; d2Nal = N[C@H](Cc1ccc2ccccc2c1)C(=O)O; X2 = NC(=O)N[C@H](CS[*:2])C(=O)[*:1]; NMeS = CN[C@@H](CO)C(=O)O
Provide the reading as a plain figure in nM.

# annotated cases, reported IC50 shown
compound: CC(C)NCc1ccc(C[C@H]2C(=O)N[C@@H]([C@@H](C)O)C(=O)N[C@@H](Cc3ccccc3)C(=O)N[C@@H]([C@@H](C)O)C(=O)N[C@@H](CO)C(=O)N[C@H](C(=O)O)CSSC[C@H](N)C(=O)N[C@@H](CCCCN)C(=O)N[C@@H](Cc3ccccc3)C(=O)N[C@@H](Cc3ccccc3)C(=O)N[C@H](Cc3ccc4ccccc4c3)C(=O)N2C)cc1 [Peptide No. 15] (H-CKFF[d2Nal][NMePhe(4-CH2NHiPr)]TFTSC-OH; disulfide 1-11)
test-system: human SSTR1 (Homo sapiens)
recorded-metric: IC50
observed-measurement: 43
//
compound: CC(C)NCc1ccc(C[C@@H]2NC(=O)[C@@H](Cc3c[nH]c4ccccc34)NC(=O)[C@H](Cc3ccccc3)NC(=O)[C@H](Cc3ccccc3)NC(=O)[C@H](CCCCN)NC(=O)[C@@H](N)CSSC[C@@H](C(=O)O)NC(=O)[C@H](CO)N(C)C(=O)[C@H]([C@@H](C)O)NC(=O)[C@H](Cc3ccccc3)NC(=O)[C@H]([C@@H](C)O)NC2=O)cc1 [Peptide No. 22A] (H-CKFF[dW][Phe(4-CH2NHiPr)]TFT[NMeS]C-OH; disulfide 1-11)
test-system: human SSTR1 (Homo sapiens)
recorded-metric: IC50
observed-measurement: 25

Here is the next item to consider.
Quick check: IC50 of CC(C)NCc1ccc(C[C@@H]2NC(=O)[C@@H](Cc3c[nH]c4ccccc34)NC(=O)[C@H](Cc3ccccc3)NC(=O)[C@H](Cc3ccccc3)NC(=O)[C@H](CCCCN)NC(=O)[C@H](NC(N)=O)CSSC[C@@H](C(=O)O)NC(=O)[C@H](CO)NC(=O)[C@H]([C@@H](C)O)NC(=O)[C@H](Cc3ccc(O)cc3)NC(=O)[C@H]([C@@H](C)O)NC2=O)cc1 [Peptide No. 12C] (KFF[dW][Phe(4-CH2NHiPr)]TYTSC-OH; linker N-10 via X2) ?
17.4

Data origin, for the record: patent US7019109B2
